meta.source: patent US8378104B2

- System: pJNK in HCT-116 cells
- procedure-details: Phospho-JNK (Thr183/Tyr185) Meso Scale ELISA assay, TNFα-stimulated HCT-116 cells
- Type: cell-based
- assay-conditions: Homo sapiens, read-out: mean HCT-116 pJNK ELISA IC50 (Col. B)
pIC50: −log10 of the molar value.
measured-parameter: pIC50

CN1[C@@H]2CC[C@H]1C[C@H](n1cc(-c3cnc(N)c4oc(-c5cccc6cnsc56)cc34)cn1)C2 = 6.00 to 7.00
Nc1ncc(-c2cnn(C3CC4(C3)OCCO4)c2)c2cc(-c3csc4cnccc34)oc12 = 6.00 to 7.00
Nc1ncc(-c2cnn([C@H]3CC[C@H](O)CC3)c2)c2c(Cl)c(-c3csc4cnccc34)oc12 = > 7.00
Nc1ncc(-c2cnn(C3CCNCC3)c2)c2cc(-c3csc4cnccc34)oc12 = 6.00 to 7.00
Nc1ncc(-c2cnn([C@@H]3CCC[C@@H](O)C3)c2)c2cc(-c3csc4cnccc34)oc12 (relative stereo) = > 7.00
Nc1ncc(-c2cnn([C@H]3CC[C@H](O)CC3)c2)c2cc(-c3cccc4nnsc34)oc12 = > 7.00

Challenge: Look up pIC50: CC(=O)N1CCC(n2cc(-c3cnc(N)c4oc(-c5ccc6c(c5)OCO6)cc34)cn2)CC1
Response given: 5.00 to 6.00

###

- Tested on: p-p38 in HCT-116 cells
- procedure-details: Phospho-p38 Meso Scale ELISA assay, TNFα-stimulated HCT-116 cells
- Assay type: cell-based
- assay-conditions: Homo sapiens, read-out: mean HCT-116 p-p38 ELISA IC50 (Col. C)
measured-parameter: IC50

Worked examples follow.
CC(=O)N1CCC(n2cc(-c3cnc(N)c4oc(-c5ccc6nn(C)cc6c5)cc34)cn2)CC1 = 1000 to 10000 nM
CC(=O)c1cccc(-c2cc3c(-c4cnn(C5CCN(C(C)=O)CC5)c4)cnc(N)c3o2)c1 = 1000 to 10000 nM
CC(=O)N1CC(n2cc(-c3cnc(N)c4oc(-c5csc6cnccc56)cc34)cn2)C1 = 100 to 1000 nM
Cn1cc(-c2cnc(N)c3oc(-c4csc5cnccc45)cc23)cn1 = 100 to 1000 nM
CC(=O)N1CCC(n2cc(-c3cnc(N)c4oc(-c5ccccc5C#N)cc34)cn2)CC1 = 1000 to 10000 nM
CC(=O)N1CCC(n2cc(-c3cnc(N)c4oc(-c5ccc6[nH]ncc6c5)cc34)cn2)CC1 = 1000 to 10000 nM

Challenge: For CC(=O)N1CCC(n2cc(-c3cnc(N)c4oc(-c5c[nH]c6cnccc56)cc34)cn2)CC1 , what is its reported IC50?
Response given: 1000 to 10000 nM

Challenge: Same again, this time with Nc1ncc(-c2cnn(C3CC(=O)C3)c2)c2cc(-c3csc4cnccc34)oc12
Response given: 100 to 1000 nM

###

- assay-system: TAK1-TAB1 fusion protein (Homo sapiens, UniProt O43318)
- Construct: purchased Carna
- Sequence (O43318 with tags, fused parts or gaps limits assumed): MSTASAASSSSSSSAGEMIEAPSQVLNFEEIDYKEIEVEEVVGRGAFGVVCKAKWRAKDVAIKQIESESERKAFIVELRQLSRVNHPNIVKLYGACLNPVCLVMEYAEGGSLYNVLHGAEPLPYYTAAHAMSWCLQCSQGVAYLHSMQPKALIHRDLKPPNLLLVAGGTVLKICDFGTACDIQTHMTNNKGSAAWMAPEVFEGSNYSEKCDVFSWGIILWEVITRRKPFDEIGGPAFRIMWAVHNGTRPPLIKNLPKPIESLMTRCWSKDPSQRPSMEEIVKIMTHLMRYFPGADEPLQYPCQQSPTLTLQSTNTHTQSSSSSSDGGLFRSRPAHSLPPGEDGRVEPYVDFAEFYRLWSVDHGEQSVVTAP
- procedure-details: TAK1 biochemical assay (AlphaScreen, GST-MAP2K7 substrate)
- assay-conditions: TAK1-TAB1 fusion protein, GST-MAP2K7 substrate; read-out: mean TAK1 IC50 (Col. A)
pIC50: −log10 of the molar value.
measured-parameter: pIC50

Field: example entries. Status: answers known.
CC(=O)N1CCC(n2cc(-c3cnc(N)c4oc(-c5cccn6ccnc56)cc34)cn2)CC1 [Example 221, bis(trifluoroacetate)] = 6.00 to 7.00
CC(=O)N1CCC(n2cc(-c3cnc(N)c4oc(-c5cccc(Oc6ccccc6)c5)cc34)cn2)CC1 = < 5.00
O[C@H]1CC[C@H](n2cc(-c3cncc4oc(-c5cccc6ncsc56)cc34)cn2)CC1 = 6.00 to 7.00

Challenge: Quick one: pIC50 of Nc1ncc(-c2cnn([C@H]3CC[C@H](O)CC3)c2)c2cc(-c3cc(-c4cccc(F)c4)cc4nnsc34)oc12 ?
Response given: 5.00 to 6.00

Challenge: Try Nc1ncc(-c2cnn(C3CCNCC3)c2)c2cc(-c3csc4cnccc34)oc12 next.
Response given: > 7.00

Challenge: Input Nc1ncc(-c2cnn(C3CCNCC3)c2)c2cc(-c3cccc4c3oc3ccccc34)oc12
Response given: 6.00 to 7.00

Challenge: Cool, now Nc1ncc(-c2cnn([C@H]3CC[C@H](O)CC3)c2)c2cc(-c3cccc4cnccc34)oc12
Response given: 6.00 to 7.00
